Reported values of PBM binding z-score for individual entries
Tested on: RARb homodimer (NR concentration 270 nM)
experiment: PBM binding z-score (relative to random genomic background probes); higher = stronger binding; sequences stand for … in GC…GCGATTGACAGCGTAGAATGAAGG
Give the value as a plain number.

residue_codes=TCTCGCAGGACACGAAAGGTCAGAGCTCGACATC quantitative_result=4.29
residue_codes=CAGCCTAGGTCAGGGCCAGTGTAGGAGGAACGTT quantitative_result=2.75
residue_codes=AGAACGAGGGCACGCTGAGTTGATAACAGAGTAG quantitative_result=1.27
residue_codes=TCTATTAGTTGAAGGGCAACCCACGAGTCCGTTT quantitative_result=1.55
residue_codes=TCTAGCAGGCCAGAGGGTCACGCAAGAGGTACGG quantitative_result=3.37

Please examine the following record next.
// PBM binding z-score lookup, sequence = CCTATTAGTTGACCATGAGGGCAACCGAAGCTCG , result: 2.22

###

Reported values of PBM binding z-score for individual entries
Test system: VDR homodimer (NR concentration 270 nM)
experiment: PBM binding z-score (relative to random genomic background probes); higher = stronger binding; sequences stand for … in GC…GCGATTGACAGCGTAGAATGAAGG

residue_codes=TCTTGCAGATCAACAGGAGGTTAAGAAAGATCGA target_of_assay="VDR homodimer (NR concentration 270 nM)" observable="PBM binding z-score" result=-0.1
residue_codes=GGAACGAGGGCATTGGAGTTGATAGCATGGCGAT target_of_assay="VDR homodimer (NR concentration 270 nM)" observable="PBM binding z-score" result=2.58

PBM binding z-score for ATCGAAAGGTCGAGGTGAGTATTGAGAAAGGGAA is 0.377

###

Tested on: PPARg DBDmut IVT, anti-PPARg (DBD mutation: PPARg1 K132A/R137A, NR concentration 270 nM)
experiment: PBM binding z-score (relative to random genomic background probes); higher = stronger binding; sequences stand for … in GC…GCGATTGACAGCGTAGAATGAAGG
Each entry below carries its recorded PBM binding z-score.
No unit in the answer, only the number.

Sample answers from the record:
residue_codes=GGAACGACGGCAAAGTTGATAGCATCTGTCGACG target_of_assay="PPARg DBDmut IVT, anti-PPARg (DBD mutation: PPARg1 K132A/R137A, NR concentration 270 nM)" quantitative_result=-1.18
residue_codes=ACTCGGAGGACAAAGGTCAGAGCGACGCCAGTGA target_of_assay="PPARg DBDmut IVT, anti-PPARg (DBD mutation: PPARg1 K132A/R137A, NR concentration 270 nM)" quantitative_result=-0.757
residue_codes=ATATGGAGGTTACATCCGGGTCATTCAGGCTATG target_of_assay="PPARg DBDmut IVT, anti-PPARg (DBD mutation: PPARg1 K132A/R137A, NR concentration 270 nM)" quantitative_result=0.791
residue_codes=TTACCAAGGTGAAAGGTCGTGGATGCACGCCTTG target_of_assay="PPARg DBDmut IVT, anti-PPARg (DBD mutation: PPARg1 K132A/R137A, NR concentration 270 nM)" quantitative_result=-0.117
residue_codes=ACTAGCAGGCCAAGCTTGGGTCACTCAAACAAAG target_of_assay="PPARg DBDmut IVT, anti-PPARg (DBD mutation: PPARg1 K132A/R137A, NR concentration 270 nM)" quantitative_result=-0.566

Sample GCGACTCGGGCATCAGCAGGTTACCATAACTTAA ; PBM binding z-score observed: -1.46
